System: primary human mesenchymal stem cells (hMSCs)
experiment: Induction of chondrogenesis in primary human mesenchymal stem cells (nodule imaging, Rhodamine B / Nile Red)
Format: cell-based
measurement-context: concentration required to induce 50% levels of chondrogenesis vs TGF-β3 positive control, read-out: Conc (nM) of 50% TGF-β3 activity
observation-type: EC50 (nM)

Below, 5 compounds whose answers are already recorded.
                           substance_smiles  observation_type  data_value
0  O=C(Nc1cncc(-c2ccc3[nH]nc(-c4cc5c(N6CCCCC6)cccc5[nH]4)c3c2)c1)C1CC1              EC50          10
1  c1ccc2[nH]c(-c3n[nH]c4ccc(-c5cncc(OCCN6CCCC6)c5)cc34)cc2c1              EC50          10
2  CCNCc1cncc(-c2ccc3[nH]nc(-c4cc5ccccc5[nH]4)c3c2)c1              EC50          10
3  c1ccc(-c2cccc3[nH]c(-c4n[nH]c5ccc(-c6cncnc6)cc45)cc23)nc1              EC50          10
4  Nc1cncc(-c2ccc3[nH]nc(-c4cc5c(-c6ccccn6)cccc5[nH]4)c3c2)c1              EC50          10

1. CN(C)Cc1cncc(-c2ccc3[nH]nc(-c4cc5c(-c6cccs6)cccc5[nH]4)c3c2)c1
2. c1cncc(-c2ccc3[nH]nc(-c4cc5c(-c6cccnc6)cccc5[nH]4)c3c2)c1
3. CN1CCN(c2cccc3[nH]c(-c4n[nH]c5ccc(-c6cncc(N)c6)cc45)cc23)CC1
Problem: rank_up(items): orders items by reported EC50 in ascending numerical order. State the ranking by listing the labels in the requested order.
Solution: 2, 1, 3

###

System: IL-6
experiment: Inhibition of IL-6 in LPS-stimulated THP-1 human monocyte cells (HTRF)
Type: cell-based
measurement-context: IL-6 inhibition, LPS-stimulated THP-1 cells, HTRF
pEC50: −log10 of the molar value.
observation-type: pEC50

1. CC(C)CC(=O)Nc1cncc(-c2ccc3[nH]nc(-c4cc5c(-c6ccccn6)cccc5[nH]4)c3c2)c1
2. CCC(=O)Nc1cncc(-c2ccc3[nH]nc(-c4cc5c(-c6cccc(F)c6)cccc5[nH]4)c3c2)c1
Problem: Please state the entry with greater pEC50 among 1 and 2 . Answer with the label corresponding to your selection.
Solution: 1

###

Test system: SW480 colon cancer cells
experiment: Cell viability assay (CellTiter-Blue) in SW480 colon cancer cells
Type: cell-based
measurement-context: Homo sapiens, 96 h, four days, CellTiter-Blue
observation-type: EC50 (nM)

                                   compound  data_value
0  c1ccc2[nH]c(-c3n[nH]c4ccc(-c5cncc(OCCN6CCCC6)c5)cc34)cc2c1 [Compound 686]         574
1  COc1cncc(-c2ccc3[nH]nc(-c4cc5c(-c6ccc(C)s6)cccc5[nH]4)c3c2)c1 [Compound 768]        1100
2  CCC(=O)Nc1cncc(-c2ccc3[nH]nc(-c4cc5c(-c6cccnc6)cccc5[nH]4)c3c2)c1 [Compound 85]         479
3  c1cncc(-c2cccc3[nH]c(-c4n[nH]c5ccc(-c6cn[nH]c6)cc45)cc23)c1 [Compound 583]         128
4  CN(C)CCNc1cc(F)cc(-c2cccc3[nH]c(-c4n[nH]c5ccc(-c6cncc(NC(=O)C7CCCCC7)c6)cc45)cc23)c1 [Compound 471]        1380

A. CS(=O)(=O)NCc1cc(F)cc(-c2cccc3[nH]c(-c4n[nH]c5ccc(-c6cncc(OCc7ccccc7)c6)cc45)cc23)c1 [Compound 802]
B. CN(C)Cc1cncc(-c2ccc3[nH]nc(-c4cc5c(N6CCCCC6)cccc5[nH]4)c3c2)c1 [Compound 181]
C. CS(=O)(=O)NCc1cc(F)cc(-c2cccc3[nH]c(-c4n[nH]c5ccc(-c6cncc(N)c6)cc45)cc23)c1 [Compound 479]
D. O=C(Nc1cncc(-c2ccc3[nH]nc(-c4cc5c(-c6ccccn6)cccc5[nH]4)c3c2)c1)C1CCCC1 [Compound 162]
Problem: Descending sort on EC50 required. State the ranking by listing the labels in the requested order.
Solution: B, D, C, A

###

Test system: IL-6
experiment: Inhibition of IL-6 in LPS-stimulated THP-1 human monocyte cells (HTRF)
Type: cell-based
measurement-context: IL-6 inhibition, LPS-stimulated THP-1 cells, HTRF
pEC50: −log10 of the molar value.
observation-type: pEC50

Below, 4 molecules whose answers are already recorded.
>>> df
                           substance_smiles  observation_type  data_value
0  c1ccc(-c2cccc3[nH]c(-c4n[nH]c5ccc(-c6cncnc6)cc45)cc23)nc1             pEC50        6.01
1  O=C(CC1CCCCC1)Nc1cncc(-c2ccc3[nH]nc(-c4cc5c(-c6ccsc6)cccc5[nH]4)c3c2)c1             pEC50        5.89
2  O=C(Nc1cncc(-c2ccc3[nH]nc(-c4cc5c(-c6ccc(F)cc6)cccc5[nH]4)c3c2)c1)C1CCC1             pEC50        7.46
3  CS(=O)(=O)NCc1cc(F)cc(-c2cccc3[nH]c(-c4n[nH]c5ccc(-c6cncc(OCc7ccccc7)c6)cc45)cc23)c1             pEC50        6.10

1. Fc1cccc(-c2cccc3[nH]c(-c4n[nH]c5ccc(-c6ccncc6)cc45)cc23)c1
2. CC(C)CC(=O)Nc1cncc(-c2ccc3[nH]nc(-c4cc5ncccc5[nH]4)c3c2)c1
3. CC(C)C(=O)Nc1cncc(-c2ccc3[nH]nc(-c4cc5c(N6CCN(C)CC6)cccc5[nH]4)c3c2)c1
4. c1cc(-c2ccoc2)c2cc(-c3n[nH]c4ccc(-c5cncc(CNCC6CCCC6)c5)cc34)[nH]c2c1
5. CS(=O)(=O)NCc1cc(F)cc(-c2cccc3[nH]c(-c4n[nH]c5ccc(-c6cncc(N)c6)cc45)cc23)c1
Problem: Descending sort on pEC50 required. State the ranking by listing the labels in the requested order.
Solution: 1, 2, 5, 3, 4
(1: 7.51, 2: 6.99, 5: 6.77, 3: 6.23, 4: 5.12)

###

Test system: IL-6
experiment: Inhibition of IL-6 in LPS-stimulated THP-1 human monocyte cells (HTRF)
Assay type: cell-based
measurement-context: THP-1, printed beside >10 μM EC50, top concentration 10 μM, meaning not given, read-out: percentage in parentheses after EC50 >10
Reported values of inhibition at 10 µM for individual entries
A number alone suffices; assume %.

>>> print(df.to_string())
                           substance_smiles  subject_of_test  data_value
0  CC(C)(C)CC(=O)Nc1cncc(-c2ccc3[nH]nc(-c4cc5c(-c6ccc(F)cc6)cccc5[nH]4)c3c2)c1             IL-6        47.9

Problem: Recorded inhibition at 10 µM of O=C(Nc1cncc(-c2ccc3[nH]nc(-c4cc5ccccc5[nH]4)c3c2)c1)c1ccccc1 , please.
Solution: 0

Problem: Recorded inhibition at 10 µM of CCCC(=O)Nc1cncc(-c2ccc3[nH]nc(-c4cc5c(-c6cccc(F)c6)cccc5[nH]4)c3c2)c1 , please.
Solution: 24.7

Problem: Recorded inhibition at 10 µM of O=C(Cc1ccccc1)Nc1cncc(-c2ccc3[nH]nc(-c4cc5c(-c6ccncc6)cccc5[nH]4)c3c2)c1 , please.
Solution: 29.6

Problem: Recorded inhibition at 10 µM of CC(C)(C)CC(=O)Nc1cncc(-c2ccc3[nH]nc(-c4cc5ccccc5[nH]4)c3c2)c1 , please.
Solution: 0

Problem: Recorded inhibition at 10 µM of O=C(Nc1cncc(-c2ccc3[nH]nc(-c4cc5ccccc5[nH]4)c3c2)c1)C1CCC1 , please.
Solution: 44.3

Problem: Recorded inhibition at 10 µM of FC1(F)CCN(Cc2cncc(-c3ccc4[nH]nc(-c5cc6c(N7CCCCC7)cccc6[nH]5)c4c3)c2)C1 , please.
Solution: 29.2

Problem: Recorded inhibition at 10 µM of c1cc(-c2ccoc2)c2cc(-c3n[nH]c4ccc(-c5cncc(OC6CCNCC6)c5)cc34)[nH]c2c1 , please.
Solution: 25.5

Problem: Recorded inhibition at 10 µM of c1cc(-c2ccncc2)c2cc(-c3n[nH]c4ccc(-c5ccncc5)cc34)[nH]c2c1 , please.
Solution: 48.8

Problem: Recorded inhibition at 10 µM of CCCC(=O)Nc1cncc(-c2ccc3[nH]nc(-c4cc5c(-c6ccncc6)cccc5[nH]4)c3c2)c1 , please.
Solution: 33.4

Problem: Recorded inhibition at 10 µM of CC(C)(C)C(=O)Nc1cncc(-c2ccc3[nH]nc(-c4cc5c(-c6cc(F)cc(CNS(C)(=O)=O)c6)cccc5[nH]4)c3c2)c1 , please.
Solution: 24.2

Problem: Recorded inhibition at 10 µM of FC1(F)CCN(Cc2cncc(-c3ccc4[nH]nc(-c5cc6c(-c7cccnc7)cccc6[nH]5)c4c3)c2)C1 , please.
Solution: 32.2

Problem: Recorded inhibition at 10 µM of CN1CCN(c2cccc3[nH]c(-c4n[nH]c5ccc(-c6cncc(NC(=O)CC7CCNCC7)c6)cc45)cc23)CC1 , please.
Solution: 25.3

Problem: Recorded inhibition at 10 µM of CN(C)Cc1cncc(-c2ccc3[nH]nc(-c4cc5c(N6CCCCC6)cccc5[nH]4)c3c2)c1 , please.
Solution: 40.7
